B1: Poly(rC)-binding protein 1, residues 278 to 350; numbered along this chain, Q15365 (parent)
chain: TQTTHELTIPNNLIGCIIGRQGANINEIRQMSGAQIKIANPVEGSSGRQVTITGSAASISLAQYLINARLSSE

- Variants of: B1
- EXPERIMENT_DESCRIPTION: abundance fitness (aPCA) (normalised: wild type 0, dead -1); higher = more abundant; growth selection in yeast, the domain comes from the species named
- EXPERIMENTAL_PARAMETERS: Homo sapiens
This section presents variants with their documented abundance fitness values.

[
  {
    "MUTANT_LABEL": "S46L",
    "abundance fitness": 0.064
  },
  {
    "MUTANT_LABEL": "Q63M",
    "abundance fitness": -0.04
  },
  {
    "MUTANT_LABEL": "L70S",
    "abundance fitness": -0.614
  },
  {
    "MUTANT_LABEL": "S71W",
    "abundance fitness": -0.195
  },
  {
    "MUTANT_LABEL": "L65K",
    "abundance fitness": -0.422
  },
  {
    "MUTANT_LABEL": "I66C",
    "abundance fitness": -0.188
  },
  {
    "MUTANT_LABEL": "K37F",
    "abundance fitness": -0.41
  },
  {
    "MUTANT_LABEL": "Q63E",
    "abundance fitness": -0.002
  },
  {
    "MUTANT_LABEL": "G54P",
    "abundance fitness": -0.805
  },
  {
    "MUTANT_LABEL": "R20N",
    "abundance fitness": 0.27
  },
  {
    "MUTANT_LABEL": "G22Y",
    "abundance fitness": -0.383
  },
  {
    "MUTANT_LABEL": "A68Q",
    "abundance fitness": 0.14
  },
  {
    "MUTANT_LABEL": "S32P",
    "abundance fitness": -0.91
  },
  {
    "MUTANT_LABEL": "A39S",
    "abundance fitness": 0.03
  },
  {
    "MUTANT_LABEL": "A62R",
    "abundance fitness": -0.734
  },
  {
    "MUTANT_LABEL": "E6C",
    "abundance fitness": 0.168
  },
  {
    "MUTANT_LABEL": "Q21W",
    "abundance fitness": -0.339
  }
]
